TGT: SARS‐CoV‐2 Nsp15 (Severe acute respiratory syndrome coronavirus 2, UniProt P0DTD1)
TEST_DESCRIPTION: biochemical
TEST_SETTINGS: primary screen, 10 µM (Table S1)
QUANTITY: PS Inhibition % 10 µM

Which PS Inhibition % 10 µM reading was recorded for the compound C/C(=N\NC(=N)N)c1cc(NC(=O)CCCCCCCCC(=O)Nc2cc(/C(C)=N/NC(=N)N)cc(/C(C)=N/NC(=N)N)c2)cc(/C(C)=N/NC(=N)N)c1 [Semapimod] ?
106,91%

----------
Each entry below carries its recorded IC50.
TGT: SARS‐CoV‐2 Nsp15 (Severe acute respiratory syndrome coronavirus 2, UniProt P0DTD1)
TEST_DESCRIPTION: biochemical
TEST_SETTINGS: 1 mM DTT buffer; confidence interval in brackets; read-out: IC50 + DTT (μM) (CI in μM)
I only need the number, in µM, no unit after it.

Before answering, review these 4 worked examples.
# MOLECULE, QUANTITY, NUMERIC_VALUE
data = [
    ("COCCn1c2c([n+](Cc3cnccn3)c1C)C(=O)c1ccccc1C2=O [YM‐155]", "IC50", 1.2),
    ("COc1cc2c(NC3CCN(CC4CCCCC4)CC3)nc(N3CCCN(C(C)C)CC3)nc2cc1OCCCN1CCCCC1 [UNC0631]", "IC50", 2.2),
    ("CN(C)CCNc1nc2cc(O)ccc2c2c1C(=O)c1ccccc1-2.Cl.Cl [TAS‐103 (dihydrochloride)]", "IC50", 6.6),
    ("COc1cc2c(NC3CCN(C)CC3)nc(N3CCCN(C)CC3)nc2cc1OCCOCCN(C)C [UNC0321]", "IC50", 3.9),
]

Please examine the following record next.
Which IC50 reading was recorded for the molecule Cc1cc2nc3ccc(N(C)C)cc3[s+]c2cc1N [Tolonium chloride] ?
1.7

----------
In what follows, each item is paired with its ΔT m°C nDSF for Nsp15 (Severe acute respiratory syndrome coronavirus 2, UniProt P0DTD1).
Report field: quantity (unit follows the number).

Which ΔT m°C nDSF reading was recorded for the molecule CC[N+](C)(CC)CCC[n+]1c(-c2ccccc2)c2cc(N)ccc2c2ccc(N)cc21.[I-].[I-] [Propidium‐iodide] ?
0.7 °C

Lookup COCCn1c2c([n+](Cc3cnccn3)c1C)C(=O)c1ccccc1C2=O
0.1 °C

Lookup COc1cc2c(NC3CCN(C4CCCCC4)CC3)nc(N3CCCN(C(C)C)CC3)nc2cc1OCCCN1CCCCC1
0 °C

Lookup CN[C@H](CC(C)C)C(=O)N[C@H]1C(=O)N[C@@H](CC(N)=O)C(=O)N[C@H]2C(=O)N[C@H]3C(=O)N[C@H](C(=O)N[C@H](C(=O)O)c4cc(O)cc(O)c4-c4cc3ccc4O)[C@H](O[C@H]3C[C@](C)(N)[C@@H](O)[C@H](C)O3)c3ccc(c(Cl)c3)Oc3cc2cc(c3O[C@@H]2O[C@H](CO)[C@@H](O)[C@H](O)[C@H]2O[C@H]2C[C@](C)(NCc3ccc(-c4ccc(Cl)cc4)cc3)[C@@H](O)[C@H](C)O2)Oc2ccc(cc2Cl)[C@H]1O.O=P(O)(O)O.O=P(O)(O)O [Oritavancin (diphosphate)]
0 °C

Lookup CN(C)CCNc1nc2cc(O)ccc2c2c1C(=O)c1ccccc1-2.Cl.Cl [TAS‐103 (dihydrochloride)]
0.6 °C
